The molecules listed here are annotated with their T/C.
# Test system: P388 leukemia ip, CD2F1 mice, survival T/C
# METHOD DESCRIPTION: NCI In Vivo Anticancer Drug Screen. Data for tumor model P388 Leukemia (intraperitoneal) in CD2F1 (CDF1) mice
# CONDITION CONTEXT: endpoint: median survival time; dose: 240.0 mg/kg/injection; schedule: Q01DX005 (ip); vehicle: saline with Tween-80; higher = longer survival
Toxic doses and inconclusive results are not listed.
QUANTITY KIND: T/C

molecule=CNC/C(Cl)=N/S(=O)(=O)c1ccc(C)cc1 assay_value="105 % of control"
molecule=COc1cc2cc3cc(-c4ccc(Cl)cc4)c(N4CCOCC4)nc3nc2cc1OC assay_value="93 % of control"
molecule="CCCCCCC(=O)CC(SCCO)c1ccccc1Cl (stereo not given)" assay_value="114 % of control"
molecule=Nc1nc2c(C(=O)c3cccs3)nnn2c2cccc(Cl)c12 assay_value="104 % of control"
molecule="C1=CCC(C(Nc2nncs2)Nc2nncs2)CC1 (stereo not given)" assay_value="108 % of control"
molecule=O=S(=O)(Nc1cccc(Cl)c1)c1ccc(F)cc1 assay_value="101 % of control"
molecule=Cc1cc(OCCCCOc2ccc(C#N)cc2)ccc1[N+](=O)[O-] assay_value="88 % of control"
molecule=Cc1onc(-c2c(F)cccc2Cl)c1C(=O)Nc1cc2cc([N+](=O)[O-])ccc2oc1=O assay_value="92 % of control"
molecule="COc1cc(C(Nc2ncccn2)c2cc3c(cc2OC(C)=O)OCO3)cc(OC)c1OC(C)=O (stereo not given)" assay_value="99 % of control"
molecule=COc1ccc(C2C3=C(CCCC3=O)OC3=C2C(=O)CCC3)cc1 assay_value="100 % of control"
molecule=CCOC(=O)/C(C#N)=C(\C)c1ccc(O)c(OC)c1 assay_value="95 % of control"
molecule="CC1(C)OC2CC3CC(O)CC3C2O1 (stereo not given)" assay_value="102 % of control"
molecule=COC(SC)(SC)c1cc(-c2c(Cl)cccc2Cl)no1 assay_value="103 % of control"
molecule=O=C(O)COc1c2occc2cc2ccc(=O)oc12 assay_value="100 % of control"
molecule=CC(=O)ON(C(=O)c1ccccc1)c1ccccc1 assay_value="99 % of control"
molecule=O=c1[nH]nc(-c2ccccc2)c2c1[nH]c1ccccc12 assay_value="86 % of control"
molecule="COc1ccc(C2COc3cc(O)c(O)cc3C2)cc1OC (stereo not given)" assay_value="101 % of control"
molecule=O=S(=O)(Nc1cccc(C(F)(F)F)c1)c1ccc(F)cc1 assay_value="93 % of control"
molecule=COc1cc(/C=C2/Nc3ccc(Cl)cc3NC2=O)ccc1O assay_value="96 % of control"
molecule="CC1=NN(C(=O)c2ccccn2)C(=O)C1N=Nc1ccc(S(=O)(=O)Nc2ncccn2)cc1 (stereo not given)" assay_value="94 % of control"
molecule=CC(=O)OCCNc1n[nH]c(=O)c2ccncc12 assay_value="113 % of control"
molecule="O=[n+]1c2c(n([O-])c3ccccc31)C(Br)CCCC2Br (stereo not given)" assay_value="89 % of control"
molecule=O=C1CC2(C(=O)O1)c1ccccc1-c1ccccc12 assay_value="112 % of control"
molecule="CN(C)c1ccc(C(c2cc3c(cc2O)OCO3)N2CCOCC2)cc1 (stereo not given)" assay_value="108 % of control"
molecule="N#CC(NCCNC(C#N)c1ccccc1)c1ccccc1 (stereo not given)" assay_value="88 % of control"
molecule=O=c1c(Cc2ccc(Cl)cc2)coc2ccccc12 assay_value="101 % of control"
molecule=[Mn+2].[Mn+2].c1ccc2c(c1)-c1nc-2nc2[n-]c(nc3nc(nc4[n-]c(n1)c1ccccc41)-c1ccccc1-3)c1cc3c4nc5nc(nc6[n-]c(nc7nc(nc([n-]4)c3cc21)-c1ccccc1-7)c1ccccc61)-c1ccccc1-5 assay_value="106 % of control"
molecule=CCN(CC)C(=O)N1C=CC(c2ccccc2)C=C1 assay_value="108 % of control"
molecule=O=C(Nc1ccc(C(=O)O)c(O)c1)Nc1ccccc1C(F)(F)F assay_value="103 % of control"
molecule="O=C(/C=C/c1ccccc1)NC1C=Nc2ccccc2NC1=O (stereo not given)" assay_value="99 % of control"
molecule=CCOC(=O)Cc1csc2nc(-c3ccccc3)cn12 assay_value="106 % of control"
molecule=COc1cc(Cc2n[nH]c(=S)n2-c2ccccc2)c(S(N)(=O)=O)cc1OC assay_value="94 % of control"
molecule="CC1(Cn2ccc(=O)[nH]c2=O)CC(C2(C)OCCO2)C(=O)O1 (stereo not given)" assay_value="101 % of control"
molecule="CC1=NNC(=O)CC1C(O)c1ccc(F)cc1 (stereo not given)" assay_value="100 % of control"
molecule=C/C(CC(=O)c1ccccc1)=C1\C(=O)NN(c2ccccc2)C1=O assay_value="93 % of control"
molecule=O=C(NCc1ccco1)Nc1c(Cl)cc(Cl)cc1Cl assay_value="100 % of control"
molecule="COC(=O)C(C)(OC)SC (stereo not given)" assay_value="98 % of control"
molecule=COc1cc2nn(-c3ccccc3N)nc2cc1OC assay_value="102 % of control"
molecule="COc1cccc(N2N=NCC2O)c1 (stereo not given)" assay_value="104 % of control"
molecule="COC(=O)C1(CC(=O)c2ccccn2)NC(=S)NC(=O)C1C#N (stereo not given)" assay_value="97 % of control"
molecule="CCOC(=O)C(CCc1ccccn1)C(C)=O (stereo not given)" assay_value="98 % of control"
molecule="CCOC(=O)C1CCC(=O)N1Cc1c[nH]c2ccccc12 (stereo not given)" assay_value="94 % of control"
molecule=CCOC(=O)C1=C(Nc2ccc(Br)cc2)C(=O)N(CC)C1 assay_value="106 % of control"
molecule=Cc1ccc2cccc(OC(=O)Nc3cc(Cl)c(Cl)cc3Cl)c2n1 assay_value="94 % of control"
molecule=O=C(/C=C/c1c(-c2ccccc2)[nH]c2ccccc12)c1ccccc1[N+](=O)[O-] assay_value="92 % of control"

---

The compounds listed here are annotated with their T/C.
# Test system: P388 leukemia ip, CD2F1 mice, survival T/C
# METHOD DESCRIPTION: NCI In Vivo Anticancer Drug Screen. Data for tumor model P388 Leukemia (intraperitoneal) in CD2F1 (CDF1) mice
# CONDITION CONTEXT: endpoint: median survival time; dose: 200.0 mg/kg/injection; schedule: Q04DX003 (ip); vehicle: saline with Tween-80; higher = longer survival
Toxic doses and inconclusive results are not listed.
QUANTITY KIND: T/C

compound=COc1cc(/C=N\NC(=O)OC(C)(C)C)cc(OC)c1OC assay_value="91 % of control"
compound="[I][Hg][CH2]C1OCCOC1[CH2][Hg][I] (stereo not drawn)" assay_value="118 % of control"
compound="CCC(=O)OC1CCC2C3CCC4=CC(=O)CCC4(C)C3CCC12C (stereo not drawn)" assay_value="100 % of control"
compound=C=C(C)Cn1ccn(C)c1=S assay_value="98 % of control"
compound="CCC(C(N)=O)C1=CCCCC1 (stereo not drawn)" assay_value="100 % of control"
compound=CCCCCCCCCCC(O)CCCCCCCCCC assay_value="90 % of control"
compound=Cc1cc2ncnn2cn1 assay_value="99 % of control"
compound="CC(=O)OC1CC2C(C)(C)C(=O)C=CC2(C)C2CCC3(C)C(c4ccoc4)OC(=O)C4OC43C12C (stereo not drawn)" assay_value="100 % of control"

---

The molecules listed here are annotated with their T/C.
# System: P388 leukemia ip, CD2F1 mice, survival T/C
# METHOD DESCRIPTION: NCI In Vivo Anticancer Drug Screen. Data for tumor model P388 Leukemia (intraperitoneal) in CD2F1 (CDF1) mice
# CONDITION CONTEXT: endpoint: median survival time; dose: 6.25 mg/kg/injection; schedule: Q01DX005 (ip); vehicle: Klucel (hydroxypropylcellulose) (HPC); higher = longer survival
Toxic doses and inconclusive results are not listed.
QUANTITY KIND: T/C

smiles_str=Cc1cc2nc3cc(C)c(N)cc3[n+](-c3ccccc3)c2cc1N quantity_kind=T/C assay_value="109 % of control"
smiles_str=Cc1c(C#N)c(N)nc2c(C(N)=O)nsc12 quantity_kind=T/C assay_value="98 % of control"
smiles_str=CN(C)CCn1c2nc(=O)[nH]c(=O)c-2nc2ccccc21 quantity_kind=T/C assay_value="93 % of control"

---

# Tested on: P388 leukemia ip, CD2F1 mice, survival T/C
# METHOD DESCRIPTION: NCI In Vivo Anticancer Drug Screen. Data for tumor model P388 Leukemia (intraperitoneal) in CD2F1 (CDF1) mice
# CONDITION CONTEXT: endpoint: median survival time; dose: 400.0 mg/kg/injection; schedule: Q04DX002 (ip); vehicle: saline with Tween-80; higher = longer survival
# Protocol: The antitumor activity of compounds was measured in mice bearing transplantable tumors. Survival or tumor size were measured and the results are expressed as the measurement made in the treated group (T) divided by the measurement made in the vehicle treated control group (C). The tumor model used in this assay is P388 Leukemia (intraperitoneal) in CD2F1 (CDF1) mice
Toxic doses and inconclusive results are not listed.
The compounds listed here are annotated with their T/C.
QUANTITY KIND: T/C

compound=CSC(=S)n1nc(-c2ccccc2)c(N=Nc2cccc(F)c2)c1-c1ccccc1 assay_value="87 % of control"
compound=C=C(C)c1c2ccccc2cc2cccc(Sc3ccc(C(C)(C)C)cc3)c12 assay_value="92 % of control"
compound=N#CNC(=NC12CC3CC(CC(C3)C1)C2)Nc1ccncc1 assay_value="109 % of control"
compound=COCCOC(=O)CCn1nc(-c2ccccc2)c(-c2ccccc2)c(C#N)c1=O assay_value="100 % of control"
compound="O=C1CSC(c2c(Cl)cccc2[N+](=O)[O-])N1c1nncs1 (stereo not given)" assay_value="92 % of control"
compound=O=C(N/C(=C\c1nc2ccccc2s1)c1ccccc1O)c1ccccc1 assay_value="103 % of control"
compound=CS/C(N)=N\NCCC(=O)Nc1c(C)cccc1C assay_value="91 % of control"
compound=Nc1cc(=O)n2cn[nH]c2n1 assay_value="103 % of control"
compound="C=CCC1CCC(=O)NC1=O (stereo not given)" assay_value="112 % of control"
compound=CCOc1ccc(-n2c(=O)c(N=Nc3ccccc3Cl)c(O)n(-c3ccc(Br)cc3)c2=S)cc1 assay_value="87 % of control"
